These measurements were taken from PubChem BioAssay (NCI).

- System: HL-60(TB) leukemia
- assay: NCI tumour cell line growth inhibition, 48 h
Measured TGI accompanies every entry in the list below.
Give just the numeric value; µM need not be written.

compound	target-of-assay	TGI, µM
CCCCCCCCCCN(CCCCCCCCCC)CC(=O)c1ccc2cc(Br)c3ccccc3c2c1	HL-60(TB) leukemia	4.22

Pending compound:
Returns the measured TGI for the input compound. Input: CC(=O)OCCOCNC(=S)N/N=C(\C)c1cnc2ccccc2n1
80.8

###

- Tested on: HCC-2998 colon
- assay: NCI tumour cell line growth inhibition, 48 h
Measured TGI accompanies every entry in the list below.

compound	target-of-assay	TGI
CC(C)C(C/C=C1\CC(CO)(COC(=O)c2ccccc2)OC1=O)C(C)C (centres undefined)	HCC-2998 colon	44.8 µM
CCCCc1c(C(=O)OC(C)(C)C)cc(C#Cc2cc(C(=O)OC(C)(C)C)c(CCCC)c(C(=O)OC(C)(C)C)c2)cc1C(=O)OC(C)(C)C	HCC-2998 colon	> 100 µM
Cc1ccc(N=Nc2c(O)ccc3cc(S(=O)(=O)O)ccc23)c(C)c1	HCC-2998 colon	> 100 µM

Returns the measured TGI for the input compound. Input: C=CCOc1ccccc1N=N/C(C#N)=N\Nc1ccccc1OCC=C
> 100 µM

Returns the measured TGI for the input compound. Input: C/C(=N\NS(=O)(=O)c1ccccc1)c1ccccc1
> 100 µM

###

- Tested on: LOX IMVI melanoma
- assay: NCI tumour cell line growth inhibition, 48 h
observed-property: log10 TGI (log10 of the value in µM)
A value of 2 here means TGI of 100 in µM, since values are log10.

Reference set (4 entries):
> print(dat)
                                   compound  observed.property  recorded.value
1  CC(=O)NCCC1CN(C(=O)/C=C\C#C[Si](C)(C)C)c2ccccc21 (stereo unspecified)          log10 TGI            1.65
2  COc1ccc2[nH]c(Cl)c(/C=C3/C(=O)Nc4cc(C)c(OC)cc43)c2c1          log10 TGI            1.24
3  NCCCn1c2ccccc2c2c3c(c4c(c21)CCC(O)CC4)C(=O)NC3=O (stereo unspecified)          log10 TGI            0.47
4  COCCOC(=O)NC(=O)Nc1ccc(/C(=N/O)c2ccc(Cl)cc2)cc1          log10 TGI            1.37

Returns the measured log10 TGI for the input compound. Input: C=C1C(=O)O[C@H]2[C@H]1CC/C(COC(=O)NCc1ccc(Cn3c(=O)sn(CCCCl)c3=O)cc1)=C\CC[C@@]1(C)O[C@@H]21
0.49

###

GI50, U251 CNS, per-entry values.

> print(dat)
                                   compound  target.of.assay  observed.property  recorded.value
1  COC1CC2C=C(C)/C=C/C=C/C(=O)NC(c3ccccc3)C/C=C/CCC(O)CC(=O)C2=C1O (centres undefined)         U251 CNS               GI50        0.153 µM

Can you look up GI50 on U251 CNS for O=S(=O)(NCC1CCC(CNc2ccc(Cl)cc2)CC1)c1ccc(-c2ccccc2)cc1 (centres undefined) ?
23.5 µM

Can you look up GI50 on U251 CNS for COC(=O)c1c2c(c(C)[n+]([O-])c1C)C(=O)C=C(NCc1ccc(F)c(F)c1)C2=O ?
0.458 µM

Can you look up GI50 on U251 CNS for CC(=O)[C@@H]1CCC=C2CC[C@]3(C)[C@@H](CC[C@@H]4[C@@]5(C)CCCNC(C)(C)[C@@H]5CC[C@]43C)[C@H]21 ?
1.76 µM

Can you look up GI50 on U251 CNS for CC/C=C\C[C@H](O)C/C=C1/C(=O)C=C[C@@H]1C/C=C\CCCC(=O)N(C)C ?
1.32 µM

Can you look up GI50 on U251 CNS for Nc1nnc2cc(Cl)ccc2n1 ?
> 100 µM
